The origin of these recorded values is PubChem BioAssay.

- Tested system: Calmodulin-1 (Homo sapiens) (UniProt P0DP23)
- Assay details: small molecules binding Ca-loaded calmodulin-1 – biochemical, small-molecule microarray, Cy5-labelled CALM1, plus calcium, artefact control for SMM control-protein annotation, profiling panel (AID 1112);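 also: score merges spot fluorescence with signal to noise from triplicate slides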
- Experimental conditions: Cy5-CALM1 binding fluorescence, higher = more signal
Criterion: composite z-score meeting or surpassing 0.4. Met: Fulfilled. Not met: Not fulfilled.

C[N+](C)(C)CCCCNC(=O)[C@H]1C[C@H]2C(=O)N3CCC[C@H]3C(=O)N2[C@H]1c1ccc(O)cc1 ... Not fulfilled

Req: Test whether the compound COCC1=C([C@H](O)CCc2ccccc2)[C@H](CO)[C@@H]2C(=O)N(Cc3ccccc3)C(=O)[C@@H]2C1 records composite z-score of 0.4 or higher.
Resp: Not fulfilled

Req: Test whether the compound COC(=O)[C@@]1(Cc2ccc(F)cc2)[C@H]2c3cc(C(=O)N4CCCC4)n(Cc4ccc(Cl)c(C(F)(F)F)c4)c3C[C@H]2CN1C(=O)c1ccccc1 records composite z-score of 0.4 or higher.
Resp: Fulfilled

Req: Test whether the compound CC(C)CNC(=O)[C@@]1(C)c2ccccc2C(=O)N(C(C)C)[C@H]1c1ccc(CO)cc1 records composite z-score of 0.4 or higher.
Resp: Not fulfilled

Req: Test whether the compound COCCOC(=O)N1C(=O)[C@@]2(c3cc(C#CCC(C(=O)OC)C(=O)OC)ccc31)[C@H](c1ccc(OCCO)cc1)N1[C@H](c3ccccc3)[C@H](c3ccccc3)OC(=O)[C@H]1[C@@H]2C(=O)NC[C@H](O)c1ccccc1 records composite z-score of 0.4 or higher.
Resp: Not fulfilled

Req: Test whether the compound O=C1O[C@@H](c2ccccc2)[C@@H](c2ccccc2)N2[C@@H](c3ccc(O)cc3)[C@]3(C(=O)Nc4ccccc43)[C@@H](C(=O)N3CCCCCCC3)[C@H]12 records composite z-score of 0.4 or higher.
Resp: Fulfilled

Req: Test whether the compound COC(=O)[C@@]1(Cc2ccc(OC)cc2)[C@H]2c3cc(C(=O)N4CCCC4)n(CCN4CCOCC4)c3C[C@H]2CN1C(=O)c1ccccc1 records composite z-score of 0.4 or higher.
Resp: Fulfilled

Req: Test whether the compound [N-]=[N+]=NCc1ccccc1C[C@]1(C(=O)NCCN2CCOCC2)N=C(c2ccc(OCCCO)cc2)O[C@H]1c1ccccc1CN=[N+]=[N-] records composite z-score of 0.4 or higher.
Resp: Not fulfilled

Req: Test whether the compound Cn1c2c(c3ccccc31)C(=O)C1NC2C=CC1(C)C(=O)OCc1ccccc1 (centres undefined) records composite z-score of 0.4 or higher.
Resp: Fulfilled

Req: Test whether the compound O=C(CS)NCCCCCNC(=O)[C@H]1C[C@H]2C(=O)N[C@@H](Cc3ccccc3)C(=O)N2[C@H]1c1cccc(OCCO)c1 records composite z-score of 0.4 or higher.
Resp: Not fulfilled

Req: Test whether the compound [N-]=[N+]=NCc1ccccc1C[C@]1(C(=O)NCc2ccccc2)COC(c2ccc(OCCCO)cc2)=N1 records composite z-score of 0.4 or higher.
Resp: Not fulfilled

Req: Test whether the compound C=CCN1C(=O)[C@]2(COC(c3ccc(OCCCO)cc3)=N2)Cc2ccccc21 records composite z-score of 0.4 or higher.
Resp: Not fulfilled

Req: Test whether the compound COCCOC(=O)N1C(=O)[C@@]2(c3cc(C#Cc4ccc(OC)cc4)ccc31)[C@H](c1ccc(OCCO)cc1)N1[C@H](c3ccccc3)[C@H](c3ccccc3)OC(=O)[C@H]1[C@@H]2C(=O)N1CCc2cc(OC)c(OC)cc2C1 records composite z-score of 0.4 or higher.
Resp: Fulfilled

Req: Test whether the compound CN(C)CCCC[C@@H]1NC(=O)[C@H]2C[C@@H](C(=O)NCCCCCNC(=O)CS)[C@@H](c3ccc(O)cc3)N2C1=O records composite z-score of 0.4 or higher.
Resp: Fulfilled
